This collection of values is drawn from PubChem BioAssay.

# maps each entry to its composite z-score
test: binders from COS7 lysate, DM2A8 probe, primary screen, torsin A project, cell lysate, small-molecule microarray, fluorescence 635/667 (AID 1065)
condition notes: higher = more signal, COS7 lysate expressing mutant human TOR1A
reported metric: composite z-score

[
  {
    "molecule": "O=C1OCC=C[C@H]2OC34C=CCN(Cn5nnc6ccccc65)C(=O)[C@H]3N(CCO)C(=O)[C@@H]4[C@@H]12 (stereo partly drawn)",
    "number": 1.9
  },
  {
    "molecule": "C=CCC(OC(C)=O)[C@@H]1[C@@H](N(Cc2ccc(-c3ccccc3)cc2)C(=O)Cc2ccc(OC)cc2)c2cc(OCCCO)ccc2N1C(=O)Cc1ccc(OC)cc1 (stereo partly drawn)",
    "number": 0.414
  },
  {
    "molecule": "COc1ccc([Si](C)(C)[C@H]2[C@H](CC(=O)N3CCC[C@H]3CO)O[C@@]3(C(=O)N(C)c4ccccc43)[C@@H]2C)cc1",
    "number": 0.384
  }
]

====

test: RPMI8226 myeloma cell viability, profiling panel, resazurin fluorescence, basal, 24 h, PK04 Diversity Set (AID 1180);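 note: RPMI8826 multiple myeloma cell line at 5000 cells per well; test concentration not given here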
condition notes: higher = more signal
Rule: z-score of 0.1 or more gives met; anything lower gives not met.

[
  {
    "compound": "COC(=O)[C@@]1(Cc2ccc(F)cc2)[C@H]2c3cc(C(=O)N(C)C)n(Cc4ccc(C(F)(F)F)nc4)c3C[C@H]2CN1C(=O)c1ccccc1",
    "discrete label": "not met"
  },
  {
    "compound": "CC1(C)OB(/C=C\\CC(OC(=O)c2ccncc2)c2ccccc2)OC1(C)C (stereo unspecified)",
    "discrete label": "met"
  },
  {
    "compound": "COC(=O)C(CC#Cc1ccc2c(c1)[C@]1(C(=O)N2)[C@H](C(=O)NC[C@H](O)c2ccccc2)[C@H]2C(=O)O[C@H](c3ccccc3)[C@H](c3ccccc3)N2[C@@H]1c1ccc(O)cc1)C(=O)OC",
    "discrete label": "not met"
  },
  {
    "compound": "CC1C2C(CCCO)=CC(C3C(=O)N(C(N)=O)C(=O)C23)N1Cc1cccc(OC(F)(F)F)c1 (stereo unspecified)",
    "discrete label": "not met"
  },
  {
    "compound": "[N-]=[N+]=Nc1ccccc1C[C@@]1(C(=O)NCC(O)CO)N=C(c2ccc(OCCCO)cc2)O[C@@H]1c1ccccc1N=[N+]=[N-] (stereo partly specified)",
    "discrete label": "not met"
  },
  {
    "compound": "COCCCNC(=O)[C@@]1(Cc2ccccc2I)c2ccccc2C(=O)N(Cc2ccccc2OC)[C@H]1c1ccc(CO)cc1",
    "discrete label": "met"
  },
  {
    "compound": "Cc1ccc(S[C@]2(C(=O)NCC(C)C)CC(=O)N(C(C)C)[C@@H]2c2ccc(CO)cc2I)cc1",
    "discrete label": "not met"
  },
  {
    "compound": "[N-]=[N+]=Nc1ccccc1C[C@]1(C(=O)N2CCCCC2)N=C(c2ccc(OCCCO)cc2)O[C@H]1c1ccccc1",
    "discrete label": "not met"
  },
  {
    "compound": "COc1ccc(CCNC(=O)[C@@]2(c3ccc([N+](=O)[O-])cc3)CC(=O)N(C3CCCCC3)[C@@H]2c2ccc(CO)cc2I)cc1",
    "discrete label": "not met"
  },
  {
    "compound": "O=C1c2ccccc2[C@@]2(Cc3ccccc3N(CC(F)(F)F)C2=O)[C@H](c2ccc(CO)cc2)N1Cc1ccccc1",
    "discrete label": "not met"
  },
  {
    "compound": "C=C(COC)/C(=C/C[C@@H](OC(=O)c1ccncc1)c1ccccc1OCCO)c1cnc2ccccc2c1",
    "discrete label": "not met"
  },
  {
    "compound": "CC(=O)NCCCC[C@@H]1NC(=O)[C@H]2C[C@@H](C(=O)O)[C@@H](c3cccc(OCCO)c3)N2C1=O",
    "discrete label": "not met"
  },
  {
    "compound": "COCCCNC(=O)[C@]1(Cc2ccccc2CN=[N+]=[N-])N=C(c2ccc(OCCCO)cc2)O[C@@H]1c1ccccc1N=[N+]=[N-]",
    "discrete label": "not met"
  },
  {
    "compound": "COc1ccc([Si](C)(C)[C@H]2[C@H](CC(=O)N3CCC[C@H]3CO)O[C@@]3(C(=O)N(C)c4c(Br)cc(C)cc43)[C@@H]2C)cc1",
    "discrete label": "met"
  },
  {
    "compound": "[N-]=[N+]=Nc1ccccc1C[C@]1(C(N)=O)COC(c2ccc(OCCCO)cc2)=N1",
    "discrete label": "met"
  },
  {
    "compound": "COc1cc(CO)cc(I)c1O[C@H]1C=C(C(=O)NCCO)C[C@@H](N(CCN2CCOCC2)C(=O)C2CCCO2)[C@@H]1O (stereo partly specified)",
    "discrete label": "met"
  },
  {
    "compound": "O=C1N(Cc2ccccc2)c2ccccc2C[C@@]12N=C(c1ccc(OCCCO)cc1)O[C@H]2c1ccccc1",
    "discrete label": "not met"
  },
  {
    "compound": "C=CCNC(=O)[C@H]1[C@@H]2C(=O)O[C@@H](c3ccccc3)[C@@H](c3ccccc3)N2[C@@H](c2ccc(O)cc2)[C@]12C(=O)Nc1ccccc12",
    "discrete label": "not met"
  },
  {
    "compound": "COCCCNC(=O)[C@@]1(c2ccc([N+](=O)[O-])cc2)CC(=O)N(C2CCCCC2)[C@@H]1c1ccc(CO)cc1I",
    "discrete label": "met"
  },
  {
    "compound": "O=C(N1CCOCC1)[C@]1(CCS(=O)(=O)c2ccccc2)N=C(c2ccc(OCCCO)cc2)O[C@@H]1c1ccccc1",
    "discrete label": "met"
  },
  {
    "compound": "COC(=O)[C@@]1(Cc2ccc(OC)cc2)[C@@H]2[C@@H](CC(=O)[C@H]2CC(=O)C(=O)N(C)C)CN1C(=O)c1ccccc1",
    "discrete label": "not met"
  }
]
